tested on: platelet aggregation induced by PAF; assay: Test 1: inhibition of platelet aggregation induced by PAF in vitro (rabbit platelet rich plasma, Born nephelometric technique); format: cell-based, male New Zealand albino rabbits; conditions: Oryctolagus cuniculus, Platelet, PAF C18 16 nM final, read-out: IC50 (concentration of the drug needed to inhibit the platelet aggregation in a 50%)
For each of the molecules below, state its pIC50.
Give bare numbers, as −log10 of the molar value.

The recorded pIC50 for CCCCCCCCCCCCCCC1COC(COCCCCCC[N+](C)(C)C)C1 (racemic) is 5.09

Report pIC50 for each item below.
1. CCCCCCCCCCCCCCCNC(=O)OCC1COC(COC(=O)CCCCC[n+]2ccsc2)C1 (racemic)
2. CCCCCCCCCCCCCCC1COC(COCCCC[N+]2(C)CCOCC2)C1 (racemic)
3. CCCCCCCCCCCCCCC1COC(COCCCC[n+]2ccccc2C)C1 (racemic)

A)
1: 5.23; 2: 4.29; 3: 4.12

---

tested on: platelet aggregation induced by PAF; test: Test 1: inhibition of platelet aggregation induced by PAF in vitro (rabbit platelet rich plasma, Born nephelometric technique); assay type: cell-based, male New Zealand albino rabbits; conditions: Oryctolagus cuniculus, Platelet, PAF C18 16 nM final, read-out: IC50 (concentration of the drug needed to inhibit the platelet aggregation in a 50%)
measurement.kind: IC50 (nM)
One number for each entry, in nM.

Some compounds with recorded IC50:
So, CCCCCCCCCCCCCCOCC1COC(COCCCCCCC[n+]2ccsc2)C1 (racemic) ? Its IC50 was 900

Field IC50 (entry CCCCCCCCCCCCCCC1COC(COC(=O)N(Cc2cccc[n+]2C)C(C)=O)C1 (racemic) ) reads 240

Recorded result, CCCCCCCCCCCCCCCCCCOCC1COC(COC(=O)CCCCC[n+]2ccsc2)C1 (racemic) , IC50: 8600

Take each entry in turn and give its IC50.
1. CCCCCCCCCCCCCCC1COC(COCCCCCC[n+]2ccn(C)c2)C1 (racemic)
2. CCCCCCCCCCCCCCCCCNC(=O)OCC1COC(COC(=O)N(Cc2cccc[n+]2CC)C(C)=O)C1 (racemic)
3. CCCCCCCCCCCCCCCCCCOCC1COC(COC(=O)N(Cc2cccc[n+]2CC)C(C)=O)C1 (racemic)
4. CCCCCCCCCCCCCCCCOCC1COC(COCCCCCC[n+]2ccsc2)C1 (racemic)

A)
[15000, 27, 34, 1400]

---

Provide the recorded IC50 for the entries that follow.
test system: platelet aggregation induced by PAF; test: Test 1: inhibition of platelet aggregation induced by PAF in vitro (rabbit platelet rich plasma, Born nephelometric technique); format: cell-based, male New Zealand albino rabbits; settings: Oryctolagus cuniculus, Platelet, PAF C18 16 nM final, read-out: IC50 (concentration of the drug needed to inhibit the platelet aggregation in a 50%)
One number for each entry, in nM.

Some molecules with recorded IC50:
Response field IC50 (platelet aggregation induced by PAF) for item CCCCCCCCCCCCCCCCCCOCC1CC(COCCCCCCC[n+]2ccsc2)CO1 (racemic) : 2000

Value (IC50, platelet aggregation induced by PAF) for record CCCCCCCCCCCCOCC1COC(COCCCCCCC[n+]2ccsc2)C1 (racemic) = 2500

Entry CCCCCCCCCCCCCCC1COC(COC(=O)CCCCC[N+](C)(C)C)C1 (racemic) , tested on platelet aggregation induced by PAF, has a reported IC50 of 180000

---
The measured IC50 that CCCCCCCCCCCCCCCCOCC1CC(COCCCCCC[n+]2ccsc2)CO1 (mixture of isomers) showed for platelet aggregation induced by PAF is 1400
